// reported protein stability index per item
B1: PRIM1 (parent)
chain: CCSSADICPKCWTLMTMAIRIIDR

variants of: B1; test: protein stability index of a GFP-peptide fusion (GPS, HEK-293T) (PSI 1-6); higher = more stable; details: c terminus: a fixed tail appended;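 also: lentivirally expressed fusions sorted by FACS into six bins by GFP to DsRed ratio, PSI derived from sequencing read proportions per bin multiplied by bin number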
value type: protein stability index

mut	value type	measured
I7Q	protein stability index	2.05
S4C	protein stability index	2.72
P9H	protein stability index	2.29
A18K	protein stability index	2.17
I22L	protein stability index	2.3
R20F	protein stability index	1.46
T13W	protein stability index	2.31
T16N	protein stability index	2.37
M15F	protein stability index	1.47
M17K	protein stability index	2.56
I7S	protein stability index	1.72
R20G	protein stability index	2.23
D6R	protein stability index	1.51
A5T	protein stability index	2.98
S3C	protein stability index	1.65
S3W	protein stability index	1.42
I22S	protein stability index	1.6
D23Y	protein stability index	1.61
K10T	protein stability index	2.71
I21C	protein stability index	1.94
L14V	protein stability index	1.8
M15V	protein stability index	2.96
I21Q	protein stability index	2.05
M15Q	protein stability index	1.95
T16E	protein stability index	1.48
I22Q	protein stability index	2.81
R24A	protein stability index	1.89
S3R	protein stability index	1.9
M15S	protein stability index	1.95
P9Q	protein stability index	1.67
T16Y	protein stability index	2.08
K10D	protein stability index	3.36
A5F	protein stability index	2.5
C2N	protein stability index	2.03
W12M	protein stability index	2.02
R24L	protein stability index	1.91
C2H	protein stability index	1.69
I22Y	protein stability index	2.09
T16R	protein stability index	1.95
I7H	protein stability index	1.91
C2D	protein stability index	2.41
T13D	protein stability index	1.61
D6Y	protein stability index	1.58
M15I	protein stability index	2.87
W12D	protein stability index	1.71
A18H	protein stability index	2.1
S3D	protein stability index	1.56
S4K	protein stability index	2.2
I19D	protein stability index	2.92
W12F	protein stability index	1.69
I21P	protein stability index	2.28
C2K	protein stability index	1.45
P9K	protein stability index	2.69
M15W	protein stability index	1.98
D6A	protein stability index	1.7
I22F	protein stability index	1.59
C11T	protein stability index	1.76
L14W	protein stability index	2.62
R20I	protein stability index	1.33
C2R	protein stability index	1.91
I21V	protein stability index	1.67
I19G	protein stability index	2.21
I19V	protein stability index	2.58
D6M	protein stability index	2.15
A18Y	protein stability index	1.34
P9I	protein stability index	1.78
S4P	protein stability index	1.67
A18E	protein stability index	1.45
C11I	protein stability index	2.4
I22V	protein stability index	2.34
T16Q	protein stability index	2.54
R20P	protein stability index	2.25
K10C	protein stability index	2.62
C1D	protein stability index	2.01
S3E	protein stability index	2.04
S4I	protein stability index	1.79
C11K	protein stability index	1.82
I22P	protein stability index	2.71
K10Y	protein stability index	1.85
M17E	protein stability index	2.5
S3L	protein stability index	2.32
S3H	protein stability index	2.16
W12S	protein stability index	2.23
T16S	protein stability index	1.49
C8I	protein stability index	3.3
D23I	protein stability index	1.84
T16V	protein stability index	1.87
I7N	protein stability index	1.69
L14A	protein stability index	2.21
L14K	protein stability index	2
D23W	protein stability index	2.15

Origin of measurements: the supplement of paper PMC10567573
